The measured values listed here are drawn from patent US12398093B2.

Please respond with reported recovery for every item in the list.
# EXPERIMENT_DESCRIPTION: In vitro absorption, Caco-2 permeability
# Assay type: in vitro ADME
# CONDITION: human, Caco-2, pH 6.5, Caco-2, pH 6.5/7.4, 1.0×10^−5 M; read-out: % Recovery B-A, Mean
All answers are understood in %, so give the number only.

So what does the record say about recovery for COc1cc(CC(C)C)c(OC)cc1CCN [2C-iBu, 2,5-dimethoxy-4-isobutylphenethylamine] ? 71

So what does the record say about recovery for COc1cc(C[C@@H](C)N)c(OC)cc1I [R-DOI] ? 87

###

Please respond with reported pKi for every item in the list.
Please keep in mind that pKi is minus log10 of the molar concentration; only the number is needed.

Please state recorded pKi (tested on UniProt P41595) of COc1cc(C[C@@H](C)N)c(OC)cc1I 8.60

Please state recorded pKi (tested on UniProt P41595) of COc1cc(CC(C)C)c(OC)cc1CCN 7.80

###

# STUDY_TARGET: 5-HT1A (h) (Homo sapiens)
# Sequence (P08908 1-422): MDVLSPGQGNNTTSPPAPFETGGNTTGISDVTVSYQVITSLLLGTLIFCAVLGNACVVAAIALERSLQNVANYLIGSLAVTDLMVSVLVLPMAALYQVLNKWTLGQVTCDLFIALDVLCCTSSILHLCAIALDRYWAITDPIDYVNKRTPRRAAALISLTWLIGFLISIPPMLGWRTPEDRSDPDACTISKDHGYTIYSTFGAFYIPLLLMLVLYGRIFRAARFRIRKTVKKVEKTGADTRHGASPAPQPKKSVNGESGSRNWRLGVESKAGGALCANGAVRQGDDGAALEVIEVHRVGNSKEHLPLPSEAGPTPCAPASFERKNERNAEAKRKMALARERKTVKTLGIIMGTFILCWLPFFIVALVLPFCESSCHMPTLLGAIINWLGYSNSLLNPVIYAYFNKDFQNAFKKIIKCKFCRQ
MEASURE_NAME: Ki (nM)
All answers are understood in nM, so give the number only.

So what does the record say about Ki for COc1cc(CC(C)C)c(OC)cc1CCN ? 79.4

###

Please respond with reported Papp A→B for every item in the list.
# EXPERIMENT_DESCRIPTION: In vitro absorption, Caco-2 permeability
# Type: in vitro ADME
# CONDITION: human, Caco-2, pH 6.5, Caco-2, pH 6.5/7.4, 1.0×10^−5 M; read-out: A-B Permeability, Mean
All answers are understood in ×10⁻⁶ cm/s, so give the number only.

So what does the record say about Papp A→B for COc1cc(C[C@@H](C)N)c(OC)cc1I [R-DOI] ? 23.4

So what does the record say about Papp A→B for COc1cc(CC(C)C)c(OC)cc1CCN [2C-iBu, 2,5-dimethoxy-4-isobutylphenethylamine] ? 10.7

###

# EXPERIMENT_DESCRIPTION: In vitro metabolism, intrinsic clearance in human liver microsomes
# Format: in vitro ADME
# CONDITION: human, human liver microsomes
MEASURE_NAME: microsomal CLint

So what does the record say about microsomal CLint for COc1cc(CC(C)C)c(OC)cc1CCN ? < 116 µL/min/mg

So what does the record say about microsomal CLint for COc1cc(C[C@@H](C)N)c(OC)cc1I ? < 116 µL/min/mg
